System Name: Free fatty acid receptor 4 (Homo sapiens, UniProt Q5NUL3)
Sequence (Q5NUL3 whole entry): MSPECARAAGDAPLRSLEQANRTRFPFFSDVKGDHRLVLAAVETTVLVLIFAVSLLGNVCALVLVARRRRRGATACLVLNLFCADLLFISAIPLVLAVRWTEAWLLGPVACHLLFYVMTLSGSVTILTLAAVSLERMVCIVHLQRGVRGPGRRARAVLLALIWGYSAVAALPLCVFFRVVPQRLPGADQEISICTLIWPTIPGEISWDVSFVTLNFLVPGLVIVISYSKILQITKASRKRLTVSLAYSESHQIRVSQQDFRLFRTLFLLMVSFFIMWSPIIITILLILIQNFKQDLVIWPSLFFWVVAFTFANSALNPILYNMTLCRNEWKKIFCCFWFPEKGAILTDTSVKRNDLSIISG
Protocol Notes: Agonist activity at human GPR120
Assay type: functional
Attribute Measured: EC50

smiles_str=CC(C)Nc1ccccc1-c1cc(F)c(OCCCC(=O)O)c(F)c1 system_name="Free fatty acid receptor 4 (Homo sapiens, UniProt Q5NUL3)" attribute_measured=EC50 recorded_value="200 to 2000 nM"

====

The entries below are paired with their reported pEC50.
System Name: UniProt O14842
Protocol Notes: Agonist activity at human GPR40 expressed in CHO cells assessed as increase in intracellular calcium level by Fluo-4-AM dye based assay
Assay type: functional, cell-based
pEC50: −log10 of the molar value.
Attribute Measured: pEC50

smiles_str=CO[C@H]1C[C@H](Oc2cc(F)c(F)c(-c3cc(F)c(OCCCCCCCC(=O)O)c(F)c3)c2)C1 value_qualifier== recorded_value=5.46
smiles_str=COc1cc(F)c(F)c(-c2cc(F)c(OCCCC(=O)O)c(F)c2)c1 value_qualifier== recorded_value=4.61
smiles_str=CO[C@H]1C[C@H](Oc2cc(F)c(F)c(-c3ccc4c(c3)CC[C@H](CCC(=O)O)O4)c2)C1 value_qualifier=< recorded_value=4.00
smiles_str=CO[C@H]1C[C@H](Oc2cc(F)c(F)c(-c3cc(F)c(OCCCCC(=O)O)c(F)c3)c2)C1 value_qualifier== recorded_value=4.16
smiles_str=CO[C@H]1C[C@H](Oc2cc(F)c(F)c(-c3cc(F)c(OCCC(C)(C)C(=O)O)c(F)c3)c2)C1 value_qualifier=< recorded_value=4.00
smiles_str=CO[C@H]1C[C@H](Oc2cc(F)c(F)c(-c3cc(F)c(OCCCC(=O)O)c(F)c3)c2)C1 value_qualifier=< recorded_value=4.00
smiles_str=CO[C@H]1C[C@H](Oc2cc3c(c(-c4cc(F)c(OCCCC(=O)O)c(F)c4)c2)OCO3)C1 value_qualifier=< recorded_value=4.00
smiles_str=CO[C@H]1C[C@H](Oc2cc(F)c(F)c(-c3cc(F)c(OCCCCCCC(=O)O)c(F)c3)c2)C1 value_qualifier== recorded_value=5.46
smiles_str=CC(C)Nc1ccccc1-c1cc(F)c(OCCCC(=O)O)c(F)c1 value_qualifier=< recorded_value=4.00

====

System Name: Free fatty acid receptor 4 (Homo sapiens)
Protocol Notes: Agonist activity at human GPR120 expressed in CHO cells assessed as increase in intracellular calcium level by Fluo-4-AM dye based assay
Assay type: functional, cell-based
The entries below are paired with their reported log10 of EC50.
Attribute Measured: log10 of EC50 (log10 of the value in nM)

smiles_str=CO[C@H]1C[C@H](Oc2cc(F)c(F)c(-c3cc(F)c(SCCCC(=O)O)c(F)c3)c2)C1 recorded_value=2.54
smiles_str=CO[C@H]1C[C@H](Oc2cc(F)c(F)c(-c3cc(F)c(OCCCCCCCC(=O)O)c(F)c3)c2)C1 recorded_value=4.38
smiles_str=CO[C@H]1C[C@H](Oc2cc3c(c(-c4cc(F)c(OCCCC(=O)O)c(F)c4)c2)OCO3)C1 recorded_value=2.34
smiles_str=CO[C@H]1C[C@H](Oc2cc(F)c(F)c(-c3cc(F)c(OCCCCCC(=O)O)c(F)c3)c2)C1 recorded_value=2.80
smiles_str=CO[C@H]1C[C@H](Oc2cc(F)c(F)c(-c3cc(F)c(OCCCCC(=O)O)c(F)c3)c2)C1 recorded_value=2.27
smiles_str=O=C(O)CCCOc1c(F)cc(-c2cc(OC3CCOCC3)cc(F)c2F)cc1F recorded_value=3.44
smiles_str=CC(C)Nc1ccccc1-c1cc(F)c(OCCCC(=O)O)c(F)c1 recorded_value=3.17
smiles_str=COc1cc(F)c(F)c(-c2cc(F)c(OCCCC(=O)O)c(F)c2)c1 recorded_value=1.84
smiles_str=CO[C@H]1C[C@H](Oc2cc(F)c(F)c(-c3cc(F)c(OCCCC(=O)O)c(F)c3)c2)C1 recorded_value=1.97

====

System Name: Free fatty acid receptor 4 (Homo sapiens, UniProt Q5NUL3)
Protocol Notes: Agonist activity at human GPR120 expressed in CHO cells assessed as increase in intracellular calcium level by Fluo-4-AM dye based assay
Assay type: functional, cell-based
pEC50: −log10 of the molar value.
Attribute Measured: pEC50

smiles_str=CO[C@H]1C[C@H](Oc2cc(F)c(F)c(-c3cc(C)c(OCCCC(=O)O)c(C)c3)c2)C1 value_qualifier== recorded_value=6.06
smiles_str=CO[C@H]1C[C@H](Oc2cc(F)c(F)c(-c3cc(F)c(OCCC(C)(C)C(=O)O)c(F)c3)c2)C1 value_qualifier== recorded_value=5.30
smiles_str=CO[C@H]1C[C@H](Oc2cc(F)c(F)c(-c3ccc4c(c3)CC[C@H](CCC(=O)O)O4)c2)C1 value_qualifier== recorded_value=6.33
smiles_str=CO[C@H]1C[C@H](Oc2cc(F)c(F)c(-c3cc(F)c(OCCCCCCC(=O)O)c(F)c3)c2)C1 value_qualifier=< recorded_value=4.00
smiles_str=CO[C@H]1C[C@H](Oc2ccc([N+](=O)[O-])c(-c3cc(F)c(OCCCC(=O)O)c(F)c3)c2)C1 value_qualifier== recorded_value=5.83

====

System Name: Free fatty acid receptor 4 (Homo sapiens) (UniProt Q5NUL3)
Sequence (Q5NUL3 whole entry): as above
Protocol Notes: Agonist activity at human GPR120 expressed in CHO cells assessed as increase in intracellular calcium level at 1 uM by Fluo-4-AM dye based assay
Assay type: functional, cell-based
Active and inactive are the calls of the source. No cut-off for these calls is given here.
Attribute Measured: Activity

smiles_str=Cc1c(COc2cc(F)c(F)c(-c3cc(F)c(OCCCC(=O)O)c(F)c3)c2)cccc1-c1ccccc1 recorded_value=inactive
smiles_str=CO[C@H]1C[C@H](Oc2cc(F)c(F)c(-c3cc(F)c(S(=O)(=O)CCCC(=O)O)c(F)c3)c2)C1 recorded_value=inactive
smiles_str=CO[C@H]1C[C@H](Oc2cc(F)c(F)c(-c3cc(F)c(OCCCC(=O)NS(C)(=O)=O)c(F)c3)c2)C1 recorded_value=inactive
smiles_str=CO[C@H]1C[C@H](Oc2cc(F)c(F)c(-c3cc(F)c(OCCCC(=O)NS(=O)(=O)c4ccccc4)c(F)c3)c2)C1 recorded_value=inactive

====

System Name: UniProtKB Q5NUL3
Protocol Notes: Agonist activity at human GPR120 expressed in CHO cells assessed as increase in intracellular calcium level at 1 uM by Fluo-4-AM dye based assay
Type: functional, cell-based
Activity calls are given as the source filed them. The calls are words filed in the database; no cut-off is given here.
Attribute Measured: Activity

smiles_str=CO[C@H]1C[C@H](Oc2cc(F)c(F)c(-c3cc(F)c(OCC(=O)O)c(F)c3)c2)C1 attribute_measured=Activity recorded_value=inactive
smiles_str=COc1cc(-c2cc(O[C@H]3C[C@H](OC)C3)cc(F)c2F)cc(OC)c1OCCCC(=O)O attribute_measured=Activity recorded_value=inactive
smiles_str=CO[C@H]1C[C@H](Oc2cc(F)c(F)c(-c3cc(F)c(OCCCC(=O)OCCNC(C)=O)c(F)c3)c2)C1 attribute_measured=Activity recorded_value=inactive

====

The entries below are paired with their reported pEC50.
System Name: Free fatty acid receptor 1 (Homo sapiens)
Sequence (O14842 whole entry): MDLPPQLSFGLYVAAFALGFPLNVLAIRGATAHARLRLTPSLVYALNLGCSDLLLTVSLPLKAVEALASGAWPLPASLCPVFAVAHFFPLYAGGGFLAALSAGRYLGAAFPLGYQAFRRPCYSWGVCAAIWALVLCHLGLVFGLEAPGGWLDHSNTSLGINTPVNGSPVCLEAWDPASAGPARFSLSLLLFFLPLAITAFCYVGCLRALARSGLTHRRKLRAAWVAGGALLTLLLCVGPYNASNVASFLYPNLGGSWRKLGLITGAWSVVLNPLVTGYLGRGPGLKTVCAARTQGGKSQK
Protocol Notes: Agonist activity at human GPR40 expressed in CHO cells assessed as increase in intracellular calcium level by Fluo-4-AM dye based assay
pEC50: −log10 of the molar value.
Attribute Measured: pEC50

smiles_str=CO[C@H]1C[C@H](Oc2ccc([N+](=O)[O-])c(-c3cc(F)c(OCCCC(=O)O)c(F)c3)c2)C1 attribute_measured=pEC50 value_qualifier== recorded_value=4.53
smiles_str=CO[C@H]1C[C@H](Oc2cc(F)c(F)c(-c3cc(F)c(OCCCCCC(=O)O)c(F)c3)c2)C1 attribute_measured=pEC50 value_qualifier== recorded_value=4.96
smiles_str=CO[C@H]1C[C@H](Oc2cc(F)c(F)c(-c3cc(C)c(OCCCC(=O)O)c(C)c3)c2)C1 attribute_measured=pEC50 value_qualifier=< recorded_value=4.00
smiles_str=CO[C@H]1C[C@H](Oc2cc(F)c(F)c(-c3cc(F)c(SCCCC(=O)O)c(F)c3)c2)C1 attribute_measured=pEC50 value_qualifier=< recorded_value=4.00
smiles_str=O=C(O)CCCOc1c(F)cc(-c2cc(OC3CCOCC3)cc(F)c2F)cc1F attribute_measured=pEC50 value_qualifier=< recorded_value=4.00
